Taken from patent US11634477.

Listed below: EC50 values for each entry.
- measuredOn: SARS-CoV-2 RBD (SARS-CoV-2, UniProt P0DTC2)
- testDescription: ELISA
Write down the numeric answer in ng/mL and omit the unit.

| binder | EC50 [ng/mL] |
| --- | --- |
| C106 (antibody, V domains shown) VH: QLQLQESGPGLVKPSETLSLTCTVSGASVSSGSYYWSWIRQPPGKGLEWIGYIYYSGSTNYNPSLKSRVTISVDTSKNQFSLKLSSVTAADTAVYYCARERPGGTYSNTWYTPTDTNWFDTWGQGTLVTVSS VL: SYELTQPPSVSVAPGKTARITCGGNNIGSKSVHWYQQKPGQAPVLVIYFDSDRPSGIPERFSGSNSGNTATLTISRVEAGDEADYYCQVWDSSRDHVVFGGGTKLTVL | 19 |
| C110 (antibody, V domains shown) VH: QVQLQQSGAEVKKPGESLKISCKGSGYSFTSYWIGWVRQMPGKGLEWMGIIYPGDSDTRYSPSFQGQVTISADKSISTAYMQWSSLKASDTAMYYCARSFRDDPRIAVAGPADAFDIWGQGTMVTVSS VL: DIQMTQSPSTLSASVGDRVTITCRASQSISYWLAWYQQKPGKAPKLLIYQASSLESGVPSRFSGSESGTEFTLTISSLQPDDFATYYCQQYNSYPYTFGQGTKLEIK | 7.29 |

Alright, here's another binder for you.
Challenge: Which value of EC50 has been reported for C132 (antibody, V domains shown) VH: QVQLQESGPGLVKPSGTLSLTCAVSGGSISSNNWWSCVRQPPGKGLEWIGEIYHSGSTNYNPSLKSRVTISVDKSKNQFSLKLSSVTAADTAVYYCARGGDTAMGPEYFDYWGQGTLVTVSS VL: QSALTQPASVSGSPGQSITISCTGTSSDVGGYNYVSWYQQHPGKAPKLMIYDVSNRPSGVSNRFSGSKSGNTASLTISGLQAEDEADYYCSSYTSSSTLLFGGGTKLTVL in the records?
Response given: 2.92
